The measurements presented in this section are drawn from patent US6835382B2.

# Test target: murine E^d MHC class II allele (Mus musculus, UniProt P01904+P01915)
# Sequence (P01904 26-255): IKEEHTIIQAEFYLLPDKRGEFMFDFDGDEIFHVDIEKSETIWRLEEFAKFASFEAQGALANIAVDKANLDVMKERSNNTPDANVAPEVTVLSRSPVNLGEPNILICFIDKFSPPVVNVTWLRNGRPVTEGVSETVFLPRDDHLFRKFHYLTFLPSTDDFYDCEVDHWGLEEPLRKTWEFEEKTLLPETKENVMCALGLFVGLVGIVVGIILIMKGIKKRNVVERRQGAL
# Sequence (P01915 27-264 limits assumed): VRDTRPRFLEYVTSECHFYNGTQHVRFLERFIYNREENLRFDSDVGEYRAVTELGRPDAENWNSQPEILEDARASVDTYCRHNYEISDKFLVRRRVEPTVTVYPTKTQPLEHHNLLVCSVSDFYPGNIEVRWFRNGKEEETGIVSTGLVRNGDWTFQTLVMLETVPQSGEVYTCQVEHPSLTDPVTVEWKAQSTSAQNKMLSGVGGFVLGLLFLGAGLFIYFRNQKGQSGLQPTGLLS
# Method summary: simultaneous assay, E^d allele (A20 APC, G28.C9 T hybridoma, HEL106-116; HT-2 [3H]TdR readout)
# Format: cell-based
# Set-up: The A20 and CH27 B cell lymphoma lines express H-2^d and H-2^k alleles, respectively; endogenous in cells; host or cells: A20 B cell lymphoma (mitomycin C-treated or paraformaldehyde-fixed)
# Test context: Table 3; AE peptide 64 μM; supernatant 1:4
Non-standard residues stand in square brackets, D forms with d. Cit = NC(=O)NCCC[C@H](N)C(=O)O; Orn = NCCC[C@H](N)C(=O)O
Parameter: Times Baseline Response, Ed
Returns: the value as a bare number; no unit string appended.

Worked examples follow.
INSERT INTO measurements (substance, test_target, value_observed) VALUES
  ('Ac-E RMKLPK-NH2 [AE186]', 'murine E^d MHC class II allele (Mus musculus, UniProt P01904+P01915)', 2.5),
  ('Ac-M RMKLPK-NH2 [AE190]', 'murine E^d MHC class II allele (Mus musculus, UniProt P01904+P01915)', 9.8),
  ('Ac-[Orn]RMKLPK-NH2 [AE180]', 'murine E^d MHC class II allele (Mus musculus, UniProt P01904+P01915)', 12.6),
  ('Ac-K RMKLPK-NH2 [AE184]', 'murine E^d MHC class II allele (Mus musculus, UniProt P01904+P01915)', 14.1),
  ('Ac-[Cit]RMKLPK-NH2 [AE181]', 'murine E^d MHC class II allele (Mus musculus, UniProt P01904+P01915)', 9.0);

Could you tell me which Times Baseline Response, Ed is on file for Ac-Q RMKLPK-NH2 [AE188] ?
8.8

Follow-up item: Ac-LRMKLPK-NH2 [AE114]
10.0

Follow-up item: Ac-H RMKLPK-NH2 [AE183]
10.3
